# recordedConditions: human;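 further: human clinical data: severe hepatitis, meaning potentially life-threatening liver failure or clinically observed cases, the value counts how many indexed literature references report it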
*1 amine or outer side, *2 acyl side, *3 side chain or, on linkers, in order; H or OH if unused. Where a SMILES comes first, the peptide text is derived from it. Bridges are numbered along the chain shown (N, C = ends). [ ]: non-standard residue; d: D form. The star is where a group is joined. X1 = O=C1C[C@@H](C(=O)[*:2])N([*:1])C[C@H]1CS[C@@H]1CN2CCC1CC2; NMePhe(4-NMe2) = CN[C@@H](Cc1ccc(N(C)C)cc1)C(=O)O; Picolinoyl(3-OH) = O=C(c1ncccc1O)*; Phg = N[C@H](C(=O)O)c1ccccc1; dAbu = CC[C@@H](N)C(=O)O
Hepatotoxicity (severe hepatitis): recorded values
Could you keep your reply to the number by itself?

Look over these answered cases.
{"columns": ["compound", "Hepatotoxicity (severe hepatitis)"],
 "data": [
  ["CCN(CC)CCS(=O)(=O)[C@@H]1CCN2C(=O)c3coc(n3)CC(=O)C[C@H](O)/C=C(C)/C=C/CNC(=O)/C=C/[C@@H](C)[C@@H](C(C)C)OC(=O)[C@@H]12.CC[C@H]1NC(=O)[C@@H](NC(=O)c2ncccc2O)[C@@H](C)OC(=O)[C@H](c2ccccc2)NC(=O)[C@@H]2CC(=O)[C@H](CS[C@@H]3CN4CCC3CC4)CN2C(=O)[C@H](Cc2ccc(N(C)C)cc2)N(C)C(=O)[C@@H]2CCCN2C1=O [QUINUPRISTIN/DALFOPRISTIN] ({Picolinoyl(3-OH)}-T[dAbu]P[NMePhe(4-NMe2)][X1][Phg]; ester 1-C)", 0],
  ["CCN(CC)CCCC(C)Nc1c2ccc(Cl)cc2nc2ccc(OC)cc12 (stereo not given)", 1],
  ["CCc1cccc2c3c([nH]c12)C(CC)(CC(=O)O)OCC3 (stereo not given)", 1],
  ["Cc1cn([C@H]2C=C[C@@H](CO)O2)c(=O)[nH]c1=O", 14],
  ["CC(Cc1ccccc1)NN (stereo not given)", 5]
]}

# evaluate next
## Input Look at this compound and give its reported Hepatotoxicity (severe hepatitis). COc1c(C)c2c(c(O)c1C/C=C(\C)CCC(=O)OCCN1CCOCC1)C(=O)OC2 [MYCOPHENOLATE MOFETIL]
## Output 0
